Molecular target: T1, HTRA4, P83105
T1 sequence (P83105 378-476, limits assumed, looked up): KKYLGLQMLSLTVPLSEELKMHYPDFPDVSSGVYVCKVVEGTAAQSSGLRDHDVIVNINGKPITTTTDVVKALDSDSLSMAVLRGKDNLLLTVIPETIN
Assay: holdup assay
Set-up: key: below the threshold = too weak to quantify, mostly under pKd 3.1 to 4
Conditions: plain residues with an end cap or a label only (N-terminal biotin on a linker: ado-ado)
Reported Property: pKd

FHSIKQSTAV [CRHR1, P34998] :: below the threshold
SKQFDKNAYV [CLDN10, P78369] :: below the threshold
DAAHHDESNC [FMNL3, Q8IVF7] :: below the threshold
KPDKQEEFYA [SDC3, O75056] :: below the threshold
KIEDVEITLV [FCHSD2, O94868] :: 4.54
HLSTRQGTCV [ATRNL1, Q5VV63] :: 4.33
PKSNSSKEYV [CLDN7, O95471] :: below the threshold
IGHEDLETAV [DGKI, O75912] :: below the threshold
PDSYHRRDFW [U2AF2, P26368] :: 3.99
AKADAQESRL [PLCB2, Q00722] :: 3.85
ATKDKKITTV [EXOC4, Q96A65] :: 3.49
RGKNRRQSIF [CDK18, Q07002] :: below the threshold
DLLGGGSDSI [TNRC6B, Q9UPQ9] :: below the threshold
QQGLLPHSSC [TYRO3, Q06418] :: below the threshold
SAGADSETHC [SLCO1B1, Q9Y6L6] :: below the threshold
SSSVNVSSNL [CXCR1, P25024] :: 3.89
